Provide the recorded ↑ IL-12 (fold increase treated vs control cells) for the entries that follow.
Tested on: THP-1 human acute monocytic leukemia cells
Test: Cytokine production by THP-1 cells (ELISA)
Assay type: cell-based
Conditions: THP-1, 1×10^6 cells, 100 μg/ml, 48 h; p70 complex and free p40
Protocol: Unless stated otherwise, 1×10^6 cells were incubated with 100 μg/ml of each of the sequences tested for 48 h at 37° C. in 5% CO2. Production of cytokines IL-6, IL-10, IL-12, IL-1beta and TNF-alpha was determined in pg/ml in 100 μl of culture supernatant using the appropriate commercial ELISA (BioSource, Camarillo Calif.). […] Results are expressed as the “fold” (×) increase in cytokine production by treated cells compared to control cells. […]

# input Please look up its ↑ IL-12 (fold increase treated vs control cells): AAAAGAAGTGGGGTGCCCCCACGATCACCAACGATGGTGTGTCCA (unmodified DNA) [BCG A-2, reference compound]
# output 1.6x

# input Please look up its ↑ IL-12 (fold increase treated vs control cells): GoGsGoToGsGo
# output −0.1x

# input Please look up its ↑ IL-12 (fold increase treated vs control cells): TGTGTG [SEQ ID NO:9 phosphorothioate] (phosphorothioate backbone)
# output −0.1x

# input Please look up its ↑ IL-12 (fold increase treated vs control cells): GCCGAGAAGGTGCGCAACCTGCCGGCTGGCCACGGACTGAACGCT (unmodified DNA) [BCG A-7, reference compound]
# output 0.5x

# input Please look up its ↑ IL-12 (fold increase treated vs control cells): GoGoGoTsGoGo
# output 0.2x

# input Please look up its ↑ IL-12 (fold increase treated vs control cells): GoGoGsTsGoGo
# output 0.5x
